tgt: Glutamate NMDA receptor
assay text: Binding affinity against glycine binding site of NMDA receptor using [3H]glycine
Type: protein-complex assay, Rattus norvegicus
Please provide measured Ki for the entries that follow.

The reported value for O=C(O)Cn1c(=O)c(=O)[nH]c2cc(C(F)(F)F)c(-n3ccc(C(=O)O)c3)cc21 in terms of Ki is > 30 µM

The reported value for O=C(O)Cn1c(=O)c(=O)[nH]c2cc([N+](=O)[O-])c(-n3ccc(C(=O)O)c3)cc21 in terms of Ki is > 30 µM

The reported value for O=C(O)Cn1c(=O)c(=O)[nH]c2cc(C(F)(F)F)c(-n3ccc(CNC(=O)Nc4cccc(C(=O)O)c4)c3)cc21 in terms of Ki is > 30 µM
